# Tested on: RXF 393 renal
# protocolDescription: NCI-60 one-dose screen, 48 h (100 = growth as untreated, 0 = no growth, -100 = all killed)
# measurementParameters: 10 µM unless noted
Compounds without any hit were thinned out: in the full panel of roughly 83,000, 20% have a hit.
Lab note: compare growth against 90%. Equal or greater, write t. Smaller, write f.

Entry "S=c1cc(S)c2cc(Br)ccc2[nH]1" : is its growth no less than 90%?
t

For this molecule, is measured growth 90% or higher? "O=C(c1nnc(Nc2ccccc2Br)o1)c1c[nH]c2ccccc12"
t

Identify whether the reported growth of the following molecule is 90% or greater: "CCCOC(=O)N[C@H]1CCc2c(Cl)c(OC)c(OC)c(OC)c2-c2ccc(SC)c(=O)cc21"
f

Exam item: decide whether the reported growth for "CNC(=O)c1cc(Cn2nc(C)c(NC(=O)Nc3ccc(Cl)c(C(F)(F)F)c3)c2C)ccn1" is at least 90%.
t

Answer whether growth of CC1(C)CC(O)CCCCCCOc2c(CN)cccc2NC(=O)c2nc(cnc2N)-c2ccc(cc2)S1(=O)=O (centres undefined) is greater than or equal to 90%.
f

Determine whether measured growth meets or exceeds 90% for "CN1CCN(CCNc2nccc(-c3c(-c4cccc(O)c4)nc4sccn34)n2)S1(=O)=O"
f

Test whether the molecule "c1ccc2c(-c3c[nH]c4ccccc34)c3c(cc2c1)[nH]c1ccccc13" records growth of 90% or higher.
f

Given the entry "COc1ccc(/C=C/C(=O)Nc2cc(/C=C\c3cc(OC)c(OC)c(OC)c3)cc(OC)c2OC)cc1OC" , answer whether its growth meets or surpasses 90%.
f

Quick check, growth >= 90%? "C[C@H](c1nc2ccc(N)cc2[nH]1)[C@H]1CC[C@H]2[C@@H]3CCC4=CC(=O)CC[C@]4(C)[C@H]3CC[C@]12C"
f

Hi team, for "O=C1Nc2ccccc2/C1=C\c1c(-c2ccc(F)cc2)nc2ccccn12" , is the recorded growth at or above 90%?
f

Check if growth >= 90% (inclusive). Item: "COc1ccc(OC)c(-c2cc(-c3ccc(Cl)cc3)c3c(N)c(C(=O)c4ccc(Cl)cc4)sc3n2)c1"
t

Determine whether measured growth meets or exceeds 90% for "C/C(=N\NC(=O)CSc1nc2ccccc2c(=O)n1CCc1ccc(S(N)(=O)=O)cc1)c1ccccn1"
f
